Biological target: purified human PRX3 (Homo sapiens, UniProt P30048)
Construct: made in house
Sequence (P30048 62-256): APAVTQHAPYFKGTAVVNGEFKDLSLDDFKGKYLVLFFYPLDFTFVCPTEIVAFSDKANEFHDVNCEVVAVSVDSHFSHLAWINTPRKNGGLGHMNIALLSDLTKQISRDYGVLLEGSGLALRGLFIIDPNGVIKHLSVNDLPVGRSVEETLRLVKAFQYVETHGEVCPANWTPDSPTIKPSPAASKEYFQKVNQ
Assay: Biochemical PRX3 Inhibition Assay (crosslink by SDS-PAGE, mono-adduct by MALDI-TOF MS)
Settings: 1-2 hr at 37° C.
Measurement name: PRX3 Inhibition (Crosslink + Mono-adduct)

| Molecule | Value reported |
| --- | --- |
| C=C(NC(=O)c1csc(N2CCC(NC(=O)OC(C)(C)C)CC2)n1)C(=O)NC(=C)c1nnc(C2CCOCC2)o1 | +++ (>90%) |
| C=C(NC(=O)c1csc(N2CCC(NC(=O)OC(C)(C)C)CC2)n1)C(=O)NC(=C)C(=O)OCC1CCOCC1 | +++ (>90%) |
| C=C(NC(=O)c1csc(N2CCC(NC(=O)OC(C)(C)C)CC2)n1)C(=O)NC(=C)C(=O)N1CCCCC1 | +++ (>90%) |
| C=C(NC(=O)C(=C)NC(=O)c1csc(N2CCC(NC(=O)OC(C)(C)C)CC2)n1)C(=O)NCCOC | +++ (>90%) |
| C=C(NC(=O)C(=C)NC(=O)c1csc(C2=N[C@@H]3c4csc(n4)[C@H]4NC(=O)c5csc(n5)[C@H]([C@](C)(O)[C@@H](C)O)NC(=O)[C@H]5CSC(=N5)/C(=C/C)NC(=O)[C@H]([C@@H](C)O)NC(=O)c5csc(n5)[C@]3(CC2)NC(=O)[C@H](C)NC(=O)C(=C)NC(=O)[C@H](C)NC(=O)[C@H]([C@@H](C)CC)N[C@@H]2C=Cc3c([C@H](C)O)cc(nc3[C@H]2O)C(=O)O[C@@H]4C)n1)C(N)=O [Thiostrepton, reference compound] | ++ (50-90%) |
| C=C(NC(=O)c1csc(N2CCC(NC(=O)OC(C)(C)C)CC2)n1)C(=O)NC(=C)C(=O)OCCOC | +++ (>90%) |
| C=C(NC(=O)c1csc(N2CCC(NC(=O)OC(C)(C)C)CC2)n1)C(=O)NC(=C)C(=O)OC1CCOCC1 | +++ (>90%) |
| C=C(NC(=O)c1csc(N2CCC(NC(=O)OC(C)(C)C)CC2)n1)C(=O)NC(=C)C(=O)N(C)CCOC | +++ (>90%) |
| C=C(NC(=O)c1csc(N2CCC(NC(=O)OC(C)(C)C)CC2)n1)C(=O)NC(=C)C(=O)OCc1ccccc1 | ++ (50-90%) |

---

Assay: Solubility Assay
Format: physicochemical
Settings: 100 mM NaCl buffer, aqueous with cosolvent or surfactant or cyclodextrin, kinetic from dmso stock, 20 mM HEPES, pH 7.5, 18-24 hours at ambient temperature, read-out: Solubility

| Molecule | solubility |
| --- | --- |
| C=C(NC(=O)c1csc(N2CCC(NC(=O)OC(C)(C)C)CC2)n1)C(=O)NC(=C)C(=O)N1CCCCC1 [Compound 1] | < 100 µM |
| C=C(NC(=O)c1csc(N2CCC(NC(=O)OC(C)(C)C)CC2)n1)C(=O)NC(=C)C(=O)OCc1ccccc1 [Compound 2] | < 100 µM |
| C=C(NC(=O)c1csc(N2CCC(NC(=O)OC(C)(C)C)CC2)n1)C(=O)NC(=C)C(=O)N(C)CCOC [Compound 7] | 100 to 1000 µM |
| C=C(NC(=O)c1csc(N2CCC(NC(=O)OC(C)(C)C)CC2)n1)C(=O)NC(=C)C(=O)OCCOC [Compound 3] | 100 to 1000 µM |
| C=C(NC(=O)c1csc(N2CCC(NC(=O)OC(C)(C)C)CC2)n1)C(=O)NC(=C)C(=O)OC [Compound A, reference compound] | < 100 µM |
| C=C(NC(=O)c1csc(-c2ccc(NC(=O)CCCCCBr)cc2)n1)C(=O)NC(=C)C(=O)OC [Compound B, reference compound] | < 100 µM |
| C=C(NC(=O)C(=C)NC(=O)c1csc(N2CCC(NC(=O)OC(C)(C)C)CC2)n1)C(=O)NCCOC [Compound 4] | 100 to 1000 µM |

Provenance of the data: patent US20260109695A1
